Hi there, I'd appreciate the recorded pIC50 for every entry that follows.
target: recombinant human KAT-II (kynurenine aminotransferase II) (Homo sapiens); construct: gene AADAT; recombinant, purchased from R&D Systems (Bio-Techne); assay: microplate fluorescent kynurenine aminotransferase assay coupled to glutamate dehydrogenase; assay type: biochemical
Sequence (Q8N5Z0 30-425): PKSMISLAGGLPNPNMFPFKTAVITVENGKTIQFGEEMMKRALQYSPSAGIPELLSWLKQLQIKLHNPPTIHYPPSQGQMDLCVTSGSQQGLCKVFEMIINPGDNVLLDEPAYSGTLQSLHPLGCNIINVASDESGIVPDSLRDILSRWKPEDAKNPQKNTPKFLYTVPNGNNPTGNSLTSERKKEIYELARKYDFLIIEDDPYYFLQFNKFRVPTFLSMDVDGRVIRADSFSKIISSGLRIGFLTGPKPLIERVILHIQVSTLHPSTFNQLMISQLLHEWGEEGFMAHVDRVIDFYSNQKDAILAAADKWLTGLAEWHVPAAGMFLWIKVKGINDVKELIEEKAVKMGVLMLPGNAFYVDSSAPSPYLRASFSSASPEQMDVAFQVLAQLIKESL
By convention, pIC50 is the negative base-10 log of a molar concentration.

Q: # return pIC50 of "O=c1c(O)c(-c2ccc(O)cc2)oc2c(O)c(O)cc(O)c12" (system: recombinant human KAT-II (kynurenine aminotransferase II) (Homo sapiens))
A: 5.22

Q: # return pIC50 of Oc1cc(O)c2c(c1)O[C@H](c1ccc(O)c(O)c1)[C@H](O)C2 [(-)-Epicatechin] (system: recombinant human KAT-II (kynurenine aminotransferase II) (Homo sapiens))
A: 5.06
